Data provenance: paper PMC5041297

Tested on: MPN erythroid and myeloid progenitors
Assay: Colony forming assay, mononuclear cells from MPN patients
Type: cell-based, human
Settings: Homo sapiens, read-out: IC50 values averaging, CMMoL samples
value type: IC50 (µM)

- test smiles: "C[C@]1(c2nc3c(C(N)=O)cccc3[nH]2)CCCN1"
  reported result: 3
